system: EKVX; assay: NCI tumour cell line growth inhibition, 48 h
Calls of active or inactive are those of the source. Rule as the data show it: active = GI50 up to about 1.1 µM and inactive = higher.
observed property: GI50

Field: example entries. Status: answers known.
{"columns": ["compound", "GI50"],
 "data": [
  ["C1CCN2CC3CCCN4CCCC(C2C1)C34 (stereo not given)", "> 100 µM (inactive)"],
  ["CC(C)C(/C=C/c1ccc(Cl)c(Cl)c1)=N\\NC(=O)N/N=C(/C=C/c1ccc(Cl)c(Cl)c1)C(C)C", "> 100 µM (inactive)"],
  ["Cc1c(C(=O)Nc2ccccc2)nnn1-c1ccnc2cc(C(F)(F)F)ccc12", "34.7 µM (inactive)"],
  ["CCCCCCCCCc1cc(-c2ccc(C=O)s2)sc1-c1ccc(C=O)s1", "70.6 µM (inactive)"],
  ["C/C=C1/CN2[C@@H](C3=C[C@@H]4[C@@H]5N(C3=O)c3ccccc3[C@@]53CCN5C/C(=C/C)[C@@H]4C[C@H]53)C[C@@]34c5ccccc5N5C(=O)CC=C([C@H]1C[C@H]23)[C@H]54", "5.66 µM (inactive)"]
]}

Provide reported GI50 for each item, in the same order as listed.
1. COC(=O)C1(C(=O)OC)CC2=C(S(=O)(=O)c3ccccc3)C[C@H](C#N)[C@H]2C1
2. [N-]=[N+]=NC1(Cc2ccccc2)C(=O)Nc2ccccc2C1=O (stereo not given)

### Response
> 100 µM (inactive)
> 100 µM (inactive)

Provide reported GI50 for each item, in the same order as listed.
1. Cn1cnc([N+](=O)[O-])c1Sc1nc(N)nc2c1ncn2Cc1ccccc1
2. CCOC(=O)C(SCCO)C(C(=O)OCC)n1cnc2c(N)ncnc21 (stereo not given)
3. O=C1C=C2SC3C[C@@]24CC1(O)[N+]1=c2c4c(c(O)c4c2=C(C=N4)CC1)N3

### Response
11.5 µM (inactive)
16.5 µM (inactive)
4.13 µM (inactive)
